# ASSAYED_SYSTEM: menin-MLL interaction (Homo sapiens (Human), UniProt O00255)
# Sequence (O00255 whole entry): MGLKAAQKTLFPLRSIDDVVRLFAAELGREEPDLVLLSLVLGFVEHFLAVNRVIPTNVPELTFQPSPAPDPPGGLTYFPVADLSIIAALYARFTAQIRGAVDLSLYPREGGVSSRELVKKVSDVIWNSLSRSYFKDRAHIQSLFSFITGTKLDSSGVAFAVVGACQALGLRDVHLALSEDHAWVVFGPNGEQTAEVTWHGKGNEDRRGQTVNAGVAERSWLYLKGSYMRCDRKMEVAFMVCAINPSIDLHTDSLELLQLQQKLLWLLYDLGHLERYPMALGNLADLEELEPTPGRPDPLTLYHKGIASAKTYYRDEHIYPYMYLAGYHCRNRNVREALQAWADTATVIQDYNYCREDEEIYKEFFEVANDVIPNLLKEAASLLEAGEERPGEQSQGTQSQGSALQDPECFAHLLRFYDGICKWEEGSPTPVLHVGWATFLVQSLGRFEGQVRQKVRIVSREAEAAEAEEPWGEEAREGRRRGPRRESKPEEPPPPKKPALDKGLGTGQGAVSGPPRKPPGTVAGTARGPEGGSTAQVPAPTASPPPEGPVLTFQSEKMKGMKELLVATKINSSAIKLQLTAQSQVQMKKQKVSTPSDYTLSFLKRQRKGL
# ASSAY_REMARKS: HTRF (TR-FRET) assay, His-tagged menin and biotinylated MLL peptide
# Type: binding
# PROTOCOL_CONDITIONS: Table 4
Entries and their IC50
RECORDED_ENDPOINT: IC50 (µM)

structure_notation=NC(=O)Cc1nc(-c2ccc(F)cc2)cs1 recorded_measurement=200
structure_notation=COc1ccc(-c2csc(CC(N)=O)n2)cc1 recorded_measurement=33

----------
# ASSAYED_SYSTEM: menin-MLL interaction (Homo sapiens (Human), UniProt O00255)
# ASSAY_REMARKS: Fluorescence polarization (FP) competition assay with fluorescein-labeled MLL peptide
# Assay type: binding
RECORDED_ENDPOINT: IC50 (µM)

structure_notation=CCc1cc2c(N3CCN(C)CC3)ncnc2s1 recorded_endpoint=IC50 recorded_measurement=170

----------
# ASSAYED_SYSTEM: menin-MLL interaction (Homo sapiens (Human), UniProt O00255)
# ASSAY_REMARKS: Fluorescence polarization (FP) competition assay with fluorescein-labeled MLL peptide
# Assay type: binding
# PROTOCOL_CONDITIONS: Table 3; NA = no activity; read-out: IC50 in FP assay with FLSN-MLL
RECORDED_ENDPOINT: IC50 (µM)

compound="CC(=O)N1c2ccccc2NC2=C(C(=O)CC(c3ccc(C(C)(C)C)cc3)C2)C1c1ccncc1 (stereo not drawn) [Compound 33]" assayed_system="menin-MLL interaction (Homo sapiens (Human), UniProt O00255)" recorded_measurement=29
compound="CC(=O)N1c2ccccc2NC2=C(C(=O)CC(c3ccc(Cl)c(Cl)c3)C2)C1c1cccnc1 (stereo not drawn) [Compound 86]" assayed_system="menin-MLL interaction (Homo sapiens (Human), UniProt O00255)" recorded_measurement=7.4
compound="CC(=O)N1c2ccccc2NC2=C(C(=O)CC(c3ccc(C(C)(C)C)cc3)C2)C1c1cccnc1 (stereo not drawn) [Compound 32]" assayed_system="menin-MLL interaction (Homo sapiens (Human), UniProt O00255)" recorded_measurement=13

----------
# ASSAYED_SYSTEM: menin-MLL interaction (Homo sapiens (Human), UniProt O00255)
# ASSAY_REMARKS: Fluorescence polarization (FP) competition assay with fluorescein-labeled MLL peptide
# Type: binding
# PROTOCOL_CONDITIONS: Table 3; NA = no activity; read-out: IC50 in FP assay with FLSN-MLL
pIC50: −log10 of the molar value.
RECORDED_ENDPOINT: pIC50

compound="CC1(C)CC(=O)C2=C(C1)Nc1ccccc1NC2c1ccc2c(c1)OCO2 (centres unmarked)" recorded_measurement=4.92
compound="O=C1CC(c2ccc3c(c2)OCO3)CC2=C1C(c1ccncc1)Nc1ccccc1N2 (centres unmarked)" recorded_measurement=3.64
compound="COc1ccc(C2CC(=O)C3=C(C2)Nc2ccccc2NC3c2cccnc2)cc1OC (centres unmarked)" recorded_measurement=4.00
compound="COc1ccc(C2CC(=O)C3=C(C2)Nc2ccccc2N(C(C)=O)C3c2cccnc2)cc1 (centres unmarked)" recorded_measurement=4.14
compound="CC(=O)N1c2ccccc2NC2=C(C(=O)CC(c3ccc(C)cc3)C2)C1c1cccnc1 (centres unmarked)" recorded_measurement=4.00
compound="COc1ccc(C2CC(=O)C3=C(C2)Nc2ccccc2NC3c2ccccc2C)cc1OC (centres unmarked)" recorded_measurement=3.94
compound="COc1cc(C2Nc3ccccc3NC3=C2C(=O)CC(C)(C)C3)cc(OC)c1OC (centres unmarked)" recorded_measurement=4.46
compound="O=C1CC(c2ccc3c(c2)OCO3)CC2=C1C(c1cccnc1)Nc1ccccc1N2 (centres unmarked)" recorded_measurement=4.20

----------
Entries and their pIC50
# ASSAYED_SYSTEM: menin-MLL interaction (Homo sapiens (Human))
# ASSAY_REMARKS: Fluorescence polarization (FP) competition assay with fluorescein-labeled MLL peptide
# Assay type: binding
# PROTOCOL_CONDITIONS: FP competition; read-out: IC50 for inhibition of the menin-MLL interaction
pIC50: −log10 of the molar value.
RECORDED_ENDPOINT: pIC50

compound=Nc1cccc(-c2cccnc2)c1 recorded_measurement=4.30
compound="CC(=O)N1c2ccccc2NC2=C(C(=O)CC(c3ccc(Cl)c(Cl)c3)C2)C1c1cccnc1 (centres unmarked)" recorded_measurement=5.13

----------
# ASSAYED_SYSTEM: menin-MLL interaction (Homo sapiens (Human))
# ASSAY_REMARKS: Fluorescence polarization (FP) competition assay with fluorescein-labeled MLL peptide
# Format: binding
# PROTOCOL_CONDITIONS: Table 4; NA = no activity, NS not defined in this table; read-out: IC50 in FP assay with FLSN-MLL
RECORDED_ENDPOINT: log10 IC50 (log10 of the value in µM)

structure_notation=COc1ccc(-c2csc(CC(N)=O)n2)cc1Br assayed_system="menin-MLL interaction (Homo sapiens (Human))" recorded_endpoint="log10 IC50" recorded_measurement=1.90
structure_notation=CCCC(=O)Nc1ccc(-c2nc(CC(N)=O)sc2C)cc1 assayed_system="menin-MLL interaction (Homo sapiens (Human))" recorded_endpoint="log10 IC50" recorded_measurement=2.92
structure_notation=NC(=O)Cc1nc(-c2ccc(F)cc2)cs1 assayed_system="menin-MLL interaction (Homo sapiens (Human))" recorded_endpoint="log10 IC50" recorded_measurement=2.36
structure_notation=Cc1ccccc1NC(=O)Cc1nc(-c2ccc(F)cc2)cs1 assayed_system="menin-MLL interaction (Homo sapiens (Human))" recorded_endpoint="log10 IC50" recorded_measurement=2.09
structure_notation=COC(=O)Cc1nc(C2CCCCC2)cs1 assayed_system="menin-MLL interaction (Homo sapiens (Human))" recorded_endpoint="log10 IC50" recorded_measurement=3.28

----------
Entries and their IC50
# ASSAYED_SYSTEM: menin-MLL interaction (Homo sapiens (Human), UniProt O00255)
# ASSAY_REMARKS: Fluorescence polarization (FP) competition assay with fluorescein-labeled MLL peptide;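 further: Read-out is fluorescence anisotropy of fluorescein-labeled MLL peptide bound to menin, inhibitors displace the peptide and lower anisotropy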
# Assay type: binding
# PROTOCOL_CONDITIONS: Table 2, FP assay; read-out: IC50
RECORDED_ENDPOINT: IC50 (µM)

compound=CC(C)c1cc2c(N3CCN(c4nnc(C(F)(F)F)s4)CC3)ncnc2s1 recorded_endpoint=IC50 recorded_measurement=2.4
compound=CCc1cc2c(N3CCN(C(=O)c4ccccc4)CC3)ncnc2s1 recorded_endpoint=IC50 recorded_measurement=10
compound=CCc1cc2c(NC3CCN(Cc4ccccc4)CC3)ncnc2s1 recorded_endpoint=IC50 recorded_measurement=1.3
compound=CC1(C)CN=C(N2CCN(c3ncnc4sc(Br)cc34)CC2)S1 recorded_endpoint=IC50 recorded_measurement=4.8
compound=CC(C)c1cc2c(N3CCCN(C4=NCC(C)(C)S4)CC3)ncnc2s1 recorded_endpoint=IC50 recorded_measurement=32
compound="CC1CCc2c(sc3ncnc(NC4CCN(Cc5ccccc5)CC4)c23)C1 (stereo not drawn)" recorded_endpoint=IC50 recorded_measurement=20
compound=CCc1cc2c(NCCN(CC)Cc3ccccc3)ncnc2s1 recorded_endpoint=IC50 recorded_measurement=27
compound=CCc1cc2c(N3CCN(C(=O)c4ccco4)CC3)ncnc2s1 recorded_endpoint=IC50 recorded_measurement=12
compound=c1ccc(CN2CCC(Nc3ncnc4sc5c(c34)CCC5)CC2)cc1 recorded_endpoint=IC50 recorded_measurement=12
compound=CCc1cc2c(N3CCCN(CC(=O)N4CCCC4)CC3)ncnc2s1 recorded_endpoint=IC50 recorded_measurement=7
compound=CC1(C)CN=C(N2CCN(c3ncnc4sc(Cc5ccccc5)cc34)CC2)S1 recorded_endpoint=IC50 recorded_measurement=4.6
compound=COc1ccc(CN2CCCN(c3ncnc4sc(C)c(C)c34)CC2)cc1 recorded_endpoint=IC50 recorded_measurement=20
compound=CCc1cc2c(N3CCCN(C4=NCC(C)(C)S4)CC3)ncnc2s1 recorded_endpoint=IC50 recorded_measurement=6.3
compound=Cc1sc2ncnc(NC3CCN(Cc4ccccc4)CC3)c2c1C recorded_endpoint=IC50 recorded_measurement=8.7
compound=CCc1cc2c(N3CCN(CC(=O)N4CCN(C)CC4)CC3)ncnc2s1 recorded_endpoint=IC50 recorded_measurement=16
compound=CCc1cc2c(N3CCN(c4nnc(C(F)(F)F)s4)CC3)ncnc2s1.Cl recorded_endpoint=IC50 recorded_measurement=1.1
compound=CCc1cc2c(N3CCN(CC(=O)N4CCOCC4)CC3)ncnc2s1 recorded_endpoint=IC50 recorded_measurement=20
compound=CCc1cc2c(NCC3CCN(Cc4ccc(F)cc4)CC3)ncnc2s1 recorded_endpoint=IC50 recorded_measurement=4.4
compound=CC(C)c1cc2c(N3CCN(C4=NCC(C)(C)S4)CC3)ncnc2s1 recorded_endpoint=IC50 recorded_measurement=0.65
compound=CCc1cc2c(NCC3CCN(Cc4cccc(C)c4)CC3)ncnc2s1 recorded_endpoint=IC50 recorded_measurement=40
compound=CCc1cc2c(N3CCN(Cc4ccc(Cl)cc4)CC3)ncnc2s1 recorded_endpoint=IC50 recorded_measurement=30

----------
# ASSAYED_SYSTEM: menin-MLL interaction (Homo sapiens (Human), UniProt O00255)
# ASSAY_REMARKS: HTRF (TR-FRET) assay, His-tagged menin and biotinylated MLL peptide
# Type: binding
# PROTOCOL_CONDITIONS: Table 1
Entries and their IC50
RECORDED_ENDPOINT: IC50 (µM)

structure_notation=CCc1cc2c(N3CCN(Cc4ccccc4)CC3)ncnc2s1 recorded_measurement=85
structure_notation=c1cn(CCCNc2ncnc3sc4c(c23)CCCCC4)cn1 recorded_measurement=35
